Kd values recorded for kinase enzymes (Homo sapiens, UniProt P42345)

Field: example entries. Status: answers known.
molecule="CC(Nc1cccc(F)c1)c1cc(C(=O)N2CCC[C@H]2CO)cc2ncc(N3CCOCC3)nc12 (single isomer, unassigned)" measured_quantity=Kd measured_result="> 30.2 µM"
molecule=CN[C@H]1CCN(C(=O)c2cc(NCc3cc(F)cc(F)c3)c3nc(N4CCOCC4)cnc3c2)C1 measured_quantity=Kd measured_result="> 30.2 µM"

q: API: value(readout= Kd, system= kinase enzymes (Homo sapiens, UniProt P42345), query= CC(Nc1cc(F)cc(F)c1)c1cc(CN2CCO[C@H](CO)C2)cc2ncc(N3CCOCC3)nc12 (single isomer, unassigned) [Compound 194] )
a: > 30.2 µM

q: API: value(readout= Kd, system= kinase enzymes (Homo sapiens, UniProt P42345), query= CC(C)NCCNC(=O)c1cc(C(C)Nc2ccc(Cl)c(F)c2)c2nc(N3CCOCC3)cnc2c1 (single isomer, unassigned) [Compound 312a] )
a: > 10 µM

q: API: value(readout= Kd, system= kinase enzymes (Homo sapiens, UniProt P42345), query= CC(Oc1cccc(F)c1)c1cc(C(=O)N2CCC[C@H]2CO)cc2ncc(N3CCOCC3)nc12 (single isomer, unassigned) [Compound 86] )
a: > 30.2 µM

q: API: value(readout= Kd, system= kinase enzymes (Homo sapiens, UniProt P42345), query= CC(Oc1cccc(F)c1)c1cc(C(=O)O)cc2ncc(N3CCOCC3)nc12 (single isomer, unassigned) [Compound 257b] )
a: 2.82 µM
